activity coefficient reference
protocolSummary: activity coefficient (dimensionless); of the first substance listed, at infinite dilution; xn = mol fraction of the nth substance listed
cond: 322.65 K; Liquid; Chromatography; x1 = 0
property: activity coefficient

>>> testvalue("ClC(Cl)Cl [trichloromethane] + CCCCCC[N+](C)(C)C.O=S(=O)([N-]S(=O)(=O)C(F)(F)F)C(F)(F)F")
0.89
>>> testvalue("C#CCCCCC [1-heptyne] + CCn1cc[n+](C)c1.N#CN=C=[N-]")
14.5
>>> testvalue("CCCCCCCCCCCCCC [tetradecane] + CCn1cc[n+](C)c1.N#CN=C=[N-]")
2500

Source of measurements: the NIST ThermoML archive (doi:10.1021/je9003178)
